Tested on: SW-620 colon
Test: NCI tumour cell line growth inhibition, 48 h; in the data active means GI50 below about 0.43 µM; inactive means the rest
Your answer must be one of the following: active, inactive

Sample answers from the record:
1) O=C(NCC(F)(F)F)Nc1cccc(-c2cnc3cc(-c4ccc(F)cc4)ccn23)c1 | inactive
2) NC(=O)c1ccc(Oc2nccc(-c3c(-c4ccc(F)cc4)ncn3C3CCNCC3)n2)cc1 | inactive
3) ClCc1ccccc1Cn1cnc2ncnc(Cl)c21 | inactive
4) c1ccc(OCCC[P+](c2ccccc2)(c2ccccc2)c2ccccc2)cc1 | inactive
5) COc1ccc(-c2nc(-c3nc4ccc(C)cc4[nH]3)cc3c2[nH]c2ccccc23)cc1 | inactive

Query compound follows.
What classification did "O=C1/C(=C/c2ccc(F)cc2)CN(C(=O)CCN2CCC(=NO)CC2)C/C1=C\c1ccc(F)cc1" end up with in this test? active

Data provenance: PubChem BioAssay (NCI)
